Tested on: CP256
procedure summary: qHTS profiling for inhibitors of Plasmodium falciparum proliferation (AID 504749); further: nearly all actives have a fitted effect of over 60% in size; further: potency means the concentration at half of the fitted maximal effect
condition context: P. falciparum in erythrocytes, SYBR Green DNA, 72 h; series mostly up to 28.7 µM
Procedure: NIH National Institute of Allergy and Infectious Diseases [NIAID] NIH Chemical Genomics Center [NCGC] […] Because mature erythrocytes lack DNA, only Plasmodium-derived DNA is detected. NCGC Assay Protocol Summary: The SYBR Green viability assay was adapted from a method described previously (Plouffe et al., 2008). […] The following morning, fluorescence intensity at 485(14) nm excitation and 535(25) nm emission wavelengths was measured on an EnVision (Perkin Elmer) plate reader. […]
Records with an inconclusive call do not appear. Activity calls are given as the source filed them. The call rests on the fitted dose curve; in most records, active means well fitted inhibition curve with a large enough effect; inconclusive means small, poorly fitted or top-dose-only effect; inactive means flat fitted curve, though single readings scatter.
result type: Potency

Worked cases, answers included:
IC(I)I    inactive
CC(=O)Oc1c(C)cc(OCC(O)CNC(C)C)c(C)c1C (stereo not given)    inactive
O=S(=O)(O)O    inactive
Oc1cc(O)c2c(c1)OC(c1ccc(O)c(O)c1)C(O)C2 (stereo not given)    inactive
Cc1c(C)c2c(c(C)c1O)CC[C@@](C)(CCC[C@@H](C)CCC[C@@H](C)CCCC(C)C)O2    inactive
CC[N+](C)(C)Cc1ccccc1Br    inactive

Param item: `Nc1c(N=Nc2ccc(-c3ccc(N=Nc4cc(S(=O)(=O)O)c5ccccc5c4N)cc3)cc2)cc(S(=O)(=O)O)c2ccccc12` ; param system: CP256; output Potency: inactive

Param item: `COC(=O)[C@H]1[C@H]2C[C@@H]3c4[nH]c5ccccc5c4CCN3C[C@H]2C[C@@H](OC(=O)c2cc(OC)c(OC)c(OC)c2)[C@@H]1OC` ; param system: CP256; output Potency: 398 nM (active)

Param item: `CC(C)(C)C(=O)OCOC(=O)[C@@H]1N2C(=O)[C@@H](N=CN3CCCCCC3)[C@H]2SC1(C)C` ; param system: CP256; output Potency: inactive

Param item: `CCCCCCCC/C=C\CCCCCCCC(=O)O` ; param system: CP256; output Potency: inactive
